biological target: MAPK1 (human) (UniProt P28482); assay: radiometric filter-binding kinase assay; settings: compound 10.0 µM
Sequence (P28482 whole entry, looked up): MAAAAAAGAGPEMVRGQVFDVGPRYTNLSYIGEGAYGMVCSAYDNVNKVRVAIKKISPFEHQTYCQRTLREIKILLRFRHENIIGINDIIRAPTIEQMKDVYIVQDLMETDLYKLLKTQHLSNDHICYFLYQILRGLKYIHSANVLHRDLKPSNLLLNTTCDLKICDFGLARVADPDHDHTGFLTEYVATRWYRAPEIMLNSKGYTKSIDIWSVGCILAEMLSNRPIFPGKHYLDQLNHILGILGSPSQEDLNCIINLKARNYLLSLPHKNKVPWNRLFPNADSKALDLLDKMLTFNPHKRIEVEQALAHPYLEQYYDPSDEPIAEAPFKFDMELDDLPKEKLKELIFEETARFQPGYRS
Please provide measured residual activity for the entries that follow.
Answer with the value and then the unit.

Guide cases for residual activity, answers given:
>  <compound>
O=C(O)c1ccc(-c2c[nH]c3ncc(-c4ccccc4)cc23)cc1C1CCCC1

>  <residual activity>
61%

$$$$
>  <compound>
C[C@H]1CCCC(=O)CCC/C=C/c2cc(O)cc(O)c2C(=O)O1

>  <residual activity>
96%

$$$$

Respectfully, I request residual activity for each entry included below.
1. CCn1c(-c2nonc2N)nc2cncc(CNC3CCNCC3)c21
2. NC(=O)c1ccc(-c2ccc(Oc3cncc4sc(-c5nn[nH]n5)cc34)cc2)cc1
3. O=C(N[C@@H](COc1ccc2[nH]c(=O)[nH]c2c1)c1ccccc1)c1cccn(Cc2ccc(F)c(F)c2)c1=O

115%
96%
101%

Reported MAPK1 (human) (UniProt P28482) residual activity for item CC(C)C[C@H](NC(=O)CNC(=O)c1cc(Cl)ccc1Cl)B1OC(=O)CC(CC(=O)O)(C(=O)O)O1 (stereo partly specified) was 86%
